Test system: K562 CRISPRi cells
assay-method-text: Constant region variant library pooled growth screen, K562
Type: cell-based, human
condition-details: sgRNA constant region variants; activity relative to the original, un-modified constant region cr995
Output: class label from Mean relative activity. Mapping: lower band (below 0.6), central band (0.6 to below 0.7), upper band (0.7 or more)

Each molecule maps to one class by Mean relative activity. Which class for cr815 (nucleic acid, listed as DNA, chemistry not fully specified) guide: GTTTAAGAGCTAAGCTGGAAACAGCATAGCAAGTTTAAATAAGGCTAGTCCGTTATCAACTTGAAAAAGTGGCACCGAGTCGATGCT ?
central band

Quick check: band for cr837 (nucleic acid, listed as DNA, chemistry not fully specified) guide: GTTTAAGAGCTAAGCTGGAAACAGCATAGCAAGTTTAAATAAGGCTAGTCCGTTATCAACTTGAAAAAGTGGCACCCAGTCGGTGCT
lower band

# bin label for cr572 (nucleic acid, listed as DNA, chemistry not fully specified) guide: GTTTAAGAGCTAAGCTGGAAACAGCATAGCAAGTTTAAATAACCGAACTCGGTTATCAACTTGAAAAAGTGGCACCGAGTCGGTGCT
lower band

Further cases:
Which bin, given its Mean relative activity, does cr743 (nucleic acid, listed as DNA, chemistry not fully specified) guide: GTTTAAGAGCTAAGCTGGAAACAGCATAGCAACTTTAAATAAGGCTAGTCCGTTATCAACTTGAAAAAGTGGCGCCGAGTCGGCGCT occupy?
lower band

Kindly state the category for this molecule: cr498 (nucleic acid, listed as DNA, chemistry not fully specified) guide: GTTTAAGAGCTAAGCTGGAAACAGCATAGCAAGTTTAATTAAGGCTAGTCCGTTATCAACTTGAAAAAGTGGCACCGAGTCGGTGCT
lower band

Given cr531 (nucleic acid, listed as DNA, chemistry not fully specified) guide: GTTTAAGAGCTAAGCTGGTAACAGCATAGCAAGTTTAAATAAGGCTAGTCCGTTATCAACTTGAAAAAGTGGCACCGAGTCGGTGCT , name the class its Mean relative activity places it in.
upper band

Note: place this molecule into its band. Item: cr001 (nucleic acid, listed as DNA, chemistry not fully specified) guide: ATTTAAGAGCTAAGCTGGAAACAGCATAGCAAGTTTAAATAAGGCTAGTCCGTTATCAACTTGAAAAAGTGGCACCGAGTCGGTGCT
central band

# bin label for cr286 (nucleic acid, listed as DNA, chemistry not fully specified) guide: GTTTAAGAGCTAAGCTGGAAACAGCATAGCAAGTTTAAATAAGGCGAGTCCGTTATCAACTTGAGAAAGTGGCACCGAGTCGGTGCT
upper band
